Source listed as ChEMBL document CHEMBL1122794.

assayProcedure: T1/2 in canine blood
Type: ADME, […], Canis lupus familiaris
experimentalParameters: dog
measuredParameter: half-life

In [3]: df
Out[3]:
                                   compound  recordedresult
0  CC(C)(C)NCC(O)COC(=O)C(c1ccccc1)c1ccccc1 (stereo not drawn)       > 180 min
1  COc1ccc(C(=O)OCC(O)CNC(C)C)cc1 (stereo not drawn)         150 min
2  CCOC(=O)NCC(C)(C)NCC(O)COC(=O)c1ccccc1F (stereo not drawn)           8 min

// half-life lookup, compound = Cc1ccccc1C(=O)OCC(O)CNC(C)C (stereo not drawn) , result: > 180 min

// half-life lookup, compound = CC(C)NCC(O)COC(=O)c1ccccc1F (stereo not drawn) , result: 7 min

// half-life lookup, compound = CC(C)NCC(O)COC(=O)c1cccc(F)c1 (stereo not drawn) , result: 52 min

###

targetEntity: Adrenergic receptor beta (Homo sapiens, UniProt P08588+P07550+P13945)
assayProcedure: In Vitro inhibition of the beta adrenergic receptor in guinea pig atria
Assay type: tissue-based, Cavia porcellus
experimentalParameters: target entry is the homologue from another species
measuredParameter: pA2

>>> df
                                   molecule  recordedresult
0  O=C(Cc1ccccc1)NCCNCC(O)COC(=O)c1ccccc1F (stereo not drawn)             < 6

Bench note, Adrenergic receptor beta (Homo sapiens, UniProt P08588+P07550+P13945): entry CC(C)NCC(O)COC(=O)c1cccc(N)c1 (stereo not drawn) , its pA2 = 6.4

Bench note, Adrenergic receptor beta (Homo sapiens, UniProt P08588+P07550+P13945): entry CC(C)(C)NCC(O)COC(=O)c1ccccc1O (stereo not drawn) , its pA2 = 7.1

Bench note, Adrenergic receptor beta (Homo sapiens, UniProt P08588+P07550+P13945): entry CC(C)(C)NCC(O)COC(=O)Cc1ccccc1 (stereo not drawn) , its pA2 = 5.6

Bench note, Adrenergic receptor beta (Homo sapiens, UniProt P08588+P07550+P13945): entry CC(C)(CNC(=O)Cc1ccccc1)NCC(O)COC(=O)c1ccccc1F (stereo not drawn) , its pA2 = 7.4

Bench note, Adrenergic receptor beta (Homo sapiens, UniProt P08588+P07550+P13945): entry CC(C)(C)NCC(O)COC(=O)c1ccc([N+](=O)[O-])cc1Cl (stereo not drawn) , its pA2 = 6.6

Bench note, Adrenergic receptor beta (Homo sapiens, UniProt P08588+P07550+P13945): entry COc1ccc(CCNCC(O)COC(=O)c2ccccc2C)cc1OC (stereo not drawn) , its pA2 = 7

Bench note, Adrenergic receptor beta (Homo sapiens, UniProt P08588+P07550+P13945): entry CCCOc1ccc(C(=O)OCC(O)CNC(C)(C)C)cc1 (stereo not drawn) , its pA2 = 5.4

Bench note, Adrenergic receptor beta (Homo sapiens, UniProt P08588+P07550+P13945): entry CC(C)(C)NCC(O)COC(=O)C1CCCC1 (stereo not drawn) , its pA2 = 5.3

Bench note, Adrenergic receptor beta (Homo sapiens, UniProt P08588+P07550+P13945): entry CC(C)NCC(O)COC(=O)c1cccc([N+](=O)[O-])c1 (stereo not drawn) , its pA2 = 6.8

###

targetEntity: Adrenergic receptor beta (Homo sapiens, UniProt P08588+P07550+P13945)
assayProcedure: In Vitro inhibition of the beta adrenergic receptor in guinea pig atria
Type: tissue-based, Cavia porcellus
experimentalParameters: target entry is the homologue from another species
measuredParameter: pA2
Form: value (number only, do not type unit).

>>> print(df.to_string())
                                   molecule  recordedresult
0  COc1ccc(CCNCC(O)COC(=O)c2ccccc2Cl)cc1OC (configuration not stated)             7.8
1  CCCOc1ccccc1C(=O)OCC(O)CNC(C)C (configuration not stated)             6.6
2  COc1ccc(CCNCC(O)COC(=O)c2ccccc2F)cc1OC (configuration not stated)             6.1
3  CC(C)(C)NCC(O)COC(=O)c1ccc(N)cc1 (configuration not stated)               7
4  CC(C)NCC(O)COC(=O)c1ccc2ccccc2c1 (configuration not stated)             6.4

Okay, next one:
// pA2 lookup, molecule = CC(=O)Nc1ccc(C(=O)OCC(O)CNC(C)C)cc1 (configuration not stated) , result: 5.8

###

targetEntity: Adrenergic receptor beta (Homo sapiens, UniProt P08588+P07550+P13945)
assayProcedure: In vitro blocking of beta adrenergic receptor in guinea pig trachea
Assay type: tissue-based, Cavia porcellus
experimentalParameters: target entry is the homologue from another species
Property: pA2; scope: individual compounds
Form: value (number only, do not type unit).

Solved entries:
>>> print(df.to_string())
                                   compound                              targetentity  measuredparameter  recordedresult
0  COc1ccc(CCNCC(O)COC(=O)c2ccccc2C)cc1OC (configuration not stated)  Adrenergic receptor beta (Homo sapiens, UniProt P08588+P07550+P13945)                pA2             6.8
1  COc1ccc(CCNCC(O)COC(=O)c2ccc(F)cc2)cc1OC (configuration not stated)  Adrenergic receptor beta (Homo sapiens, UniProt P08588+P07550+P13945)                pA2             6.7
2  Cc1cc(N)ccc1C(=O)OCC(O)CNC(C)(C)C (configuration not stated)  Adrenergic receptor beta (Homo sapiens, UniProt P08588+P07550+P13945)                pA2             8.4
3  CC(C)(C)NCC(O)COC(=O)c1ccccc1F (configuration not stated)  Adrenergic receptor beta (Homo sapiens, UniProt P08588+P07550+P13945)                pA2               8
4  Cc1cc([N+](=O)[O-])ccc1C(=O)OCC(O)CNC(C)(C)C (configuration not stated)  Adrenergic receptor beta (Homo sapiens, UniProt P08588+P07550+P13945)                pA2             7.3

// pA2 lookup, compound = COc1ccc(CCNCC(O)COC(=O)c2ccccc2)cc1OC (configuration not stated) , result: 6.3

// pA2 lookup, compound = Cc1ccccc1C(=O)OCC(O)CNC(C)(C)C (configuration not stated) , result: 7.9

###

Property: half-life; scope: individual molecules
assayProcedure: T1/2 in canine blood
Assay type: ADME, […], Canis lupus familiaris
experimentalParameters: dog
Unit min implied. Number only.

                                   molecule  recordedresult
0  CC(C)(C)NCC(O)COC(=O)c1ccc(F)cc1 (configuration not stated)              16
1  CC(C)(C)NCC(O)COC(=O)c1ccccc1O (configuration not stated)              41
2  CC(=O)NCC(C)(C)NCC(O)COC(=O)c1ccccc1F (configuration not stated)             7.5
3  CC(C)(C)NCC(O)COC(=O)c1ccccc1F (configuration not stated)              30
4  CNC(=O)NCC(C)(C)NCC(O)COC(=O)c1ccccc1F (configuration not stated)              12
5  CC(C)(CNS(=O)(=O)c1ccccc1)NCC(O)COC(=O)c1ccccc1F.O=C(O)C(=O)O (configuration not stated)              15

// half-life lookup, molecule = CC(C)(CNC(N)=O)NCC(O)COC(=O)c1ccccc1F (configuration not stated) , result: 15

// half-life lookup, molecule = CC(C)(CNC(=O)Cc1ccccc1)NCC(O)COC(=O)c1ccccc1F (configuration not stated) , result: 6

// half-life lookup, molecule = CC(C)(C)NCC(O)COC(=O)Cc1ccccc1 (configuration not stated) , result: 16

###

Property: Selectivity; scope: individual compounds
assayProcedure: Selectivity determined by expression 10[pA2(atria) - pA2 (trachea)] in guinea pig
Format: functional, Cavia porcellus

Solved entries:
                                   compound  measuredparameter  recordedresult
0  CC(C)NCC(O)COC(=O)c1ccc2ccccc2c1 (stereo not given)        Selectivity              -2
1  CC(C)(C)NCC(O)COC(=O)c1cccc(O)c1 (stereo not given)        Selectivity              -2
2  COc1ccc(C(=O)OCC(O)CNC(C)C)cc1 (stereo not given)        Selectivity              -2

// Selectivity lookup, compound = C=CCOc1ccccc1C(=O)OCC(O)CNC(C)C (stereo not given) , result: -2

// Selectivity lookup, compound = CC(C)(CNC(N)=O)NCC(O)COC(=O)c1ccccc1F (stereo not given) [FLESTOLOL] , result: -2
